- tgt: T1, CD70 on cells (CHO-CD70, JVM-3, U266, Raji, THP-1, T cells) (human, UniProt P32970 1-193)
- T1 construct: whole, on cells; also called cell-surface CD70
- T1 sequence (looked up): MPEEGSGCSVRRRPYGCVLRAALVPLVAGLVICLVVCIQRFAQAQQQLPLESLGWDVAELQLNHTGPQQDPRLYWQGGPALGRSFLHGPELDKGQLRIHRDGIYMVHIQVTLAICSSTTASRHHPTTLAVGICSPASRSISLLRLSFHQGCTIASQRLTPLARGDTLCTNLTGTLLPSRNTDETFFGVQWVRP
- assay procedure: 1.25 µg/mL scFv on CHO-CD70 cells
Property: cell binding; scope: individual binders
measured endpoint: cell binding

42-TC4-VII-G08 (scFv, His-tagged) scFv: QVQLVQSGGGVVQPGRSLRLSCAASGFTFSSYAMHWVRQAPGKGLEWVAVISYDGSNKYYADSVKGRFTISRDNSKNTLYLQMNSLRAEDTAVYYCARDLSYDYGFDYWGQGTLVTVSSGGSGGSGGSGGSSSELTQDPAVSVALGQTVRITCQGDSLRSYYASWYQQKPGQAPVLVIYGKNNRPSGIPDRFSGSSSGNTASLTITGAQAEDEADYYCNSRDSSGNHLVVFGGGTKVTVL = 364000
4-TC4-I-G08 (scFv, His-tagged) scFv: QVQLVQSGGGVVQPGRSLRLSCAASGFTFSSYAMHWVRQAPGKGLEWVAVISYDGSNKYYADSVKGRFTISRDNAKNSLYLQMNSLRDEDTAVYYCARDESFDYGVDVWGKGTTVTVSSGGSGGSGGSGGSSSELTQDPAVSVALGQTVRITCQGDSLRSYYASWYQQKPGQAPVLVIYGKNNRPSGIPDRFSGSSSGNTASLTITGAQAEDEADYYCNSRDSSGNHLVVFGGGTKLTVL = 387000
14-TC4-XIII-A01 (scFv, His-tagged) scFv: QVQLVQSGAEVKKPGASVKVSCKASGYTFTGYYMNWVRQAPGQGLEWMAWINPNTGDTNYAQKFQGRVTMTRDTSINTAYIELSRLTSDDTAVYYCARVGDYYDRSGYYRHDAFDIWGQGTMVTVSSGGSGGSGGSGGSSSELTQDPAVSVALGQTVRITCQGDSLRSYYASWYQQKPGQAPVLVIYGKNNRPSGIPDRFSGSSSGNTASLTITGAQAMDEADYYCQAWDSSTGVVFGGGTKVTVL = 111000
50-TC7-III-A11 (scFv, His-tagged; also called 1985) scFv: QVQLVQSGAEVKRPGASVKVSCKASGYTFTSYYMHWVRQAPGQGLEWMGIINPSGGSTSYAQKFQGRVTMTRDTSTSTVYMELSSLRSEDTAVYYCAIEPGYCSGGSCYPDAFDIWGQGTTVTVSSGGSGGSGGSGGSQSVLTQPPSASGTPGQRVTISCSGSSSNIGSDYVYWYQRVPGTAPKLLIYRDNQRPSGVPDRFSGSKSGTSASLAISGLRSDDEADYYCAAWDDSLSGWVFGGGTKVTVL = 122000
